experiment: ADME solubility determination in PBS at pH 2.0 and pH 7.4; format: physicochemical; settings: phosphate buffered saline, 25 °C, pH 2, aqueous buffer, thermodynamic from solid, PBS pH 2.0, 25° C., read-out: Solubility at pH 2.0
readoutLabel: solubility at 24 h

(Q) solubility at 24 h lookup needed for "CCn1cc(C(F)(F)F)nc1-c1ccc(CN2C(=O)CCn3nc(-c4c(Cl)cnn4C4(COC)CC4)cc32)cc1" , thanks.
(A) < 10 µM

(Q) Thanks! And "CC(C)n1ncc(Cl)c1-c1cc2n(n1)CCC(=O)N2Cc1ccc(-c2nc(C(F)(F)F)cn2CCF)cc1" ?
(A) < 10 µM

(Q) Entry to check: "CCn1cc(C(F)(F)F)nc1-c1ccc([C@H](C)N2C(=O)CCn3nc(-c4c(OC(F)F)ncnc4C4CC4)nc32)cc1"
(A) ≥ 10 µM

(Q) One more compound: "COc1ncnc(C)c1-c1cc2n(n1)CCCN2Cc1ccc(-c2nc(C(F)(F)F)cn2C)cc1"
(A) ≥ 10 µM

(Q) Same for CCn1cc(C(F)(F)F)nc1-c1ccc(COC2CCCn3nc(-c4c(Cl)cnn4C(C)C)cc32)cc1 (stereo not shown)
(A) < 10 µM

(Q) Can you check "COc1ncnc(C2CC2)c1-c1nc2n(n1)CCC(=O)N2[C@H](C)c1ccc(-c2nc(C(F)(F)F)c(Br)n2C)cc1" next?
(A) ≥ 10 µM

(Q) Can you handle "COc1ncnc(C2CC2)c1-c1nc2n(n1)CCC(=O)N2[C@@H](C)c1ccc(-c2nc(C(F)(F)F)cn2C(C)C)cc1" next?
(A) ≥ 10 µM

(Q) Record: "COc1nccc(C2CC2)c1-c1nc2n(n1)CCC(=O)N2Cc1ccc(-c2nc(C(F)(F)F)cn2C(C)C)c(F)c1"
(A) < 10 µM

(Q) Subsequent entry: "CC(C)n1ncc(Cl)c1-c1cc2n(n1)CCC(=O)N2Cc1ccc(-c2nn(C)cc2C#N)cc1"
(A) < 10 µM

(Q) Repeat with "COc1ccc(C)nc1-c1ccc(CN2C(=O)CCn3nc(-c4c(Cl)cnn4C(C)C)cc32)cc1Cl"
(A) ≥ 10 µM

(Q) And then CCn1cc(C(F)(F)F)nc1-c1ccc(OC2CCCn3nc(-c4c(Cl)cnn4C(C)C)cc32)cc1F (stereo not shown) , what is it?
(A) < 10 µM

(Q) Can you handle "COc1ccnc(C2CC2)c1-c1nc2n(n1)CCC(=O)N2Cc1ccc(-c2nc(C(F)(F)F)cn2C(C)C)c(F)c1" next?
(A) ≥ 10 µM

(Q) Please answer likewise for CCn1cc(C(F)(F)F)nc1-c1ccc(C(C)N2C(=O)CCn3nc(-c4c(Cl)cnn4C(C)C)cc32)cc1F (stereo not shown)
(A) < 10 µM

(Q) Query COc1ncnc(C2CC2)c1-c1nc2n(n1)CCC(=O)N2C(C)c1ccc(-c2nc(C(F)(F)F)cn2C(C)C)cc1 (stereo not shown) next
(A) ≥ 10 µM

(Q) Lookup "CCn1cc(C(F)(F)F)nc1-c1ccc(CN2CCCn3nc(-c4c(OC)ncnc4C4CC4)cc32)cc1F"
(A) ≥ 10 µM

(Q) Entry to check: "CCn1cc(C(F)(F)F)nc1-c1c(F)cc(CN2C(=O)CCn3nc(-c4c(OC)ncnc4C4CC4)cc32)cc1OC"
(A) ≥ 10 µM

(Q) Moving on to the next compound: "CCn1cc(C(F)(F)F)nc1-c1ccc(CN2CCCn3nc(-c4c(Cl)cnn4C(C)C)cc32)cc1F"
(A) < 10 µM

(Q) Please answer likewise for "CCn1cc(C(F)(F)F)nc1-c1ccc([C@@H](C)N2C(=O)CCn3nc(-c4c(Cl)cnn4C(C)C)nc32)cc1F"
(A) < 10 µM

(Q) Quick one: CCn1cc(C(F)(F)F)nc1-c1ccc(NC2CCCn3nc(-c4c(Cl)cnn4C(C)C)nc32)cc1F (stereo not shown)
(A) < 10 µM

(Q) How about this compound: "CCn1cc(C(F)(F)F)nc1-c1ccc([C@H](C)N2C(=O)CCn3nc(-c4c(OC)ncnc4C4CC4)nc32)cc1Cl"
(A) ≥ 10 µM

(Q) Thanks! And "CCn1cc(C(F)(F)F)nc1-c1ccc([C@@H](C)N2C(=O)CCn3nc(-c4c(Cl)cnn4C(C)C)nc32)cc1" ?
(A) < 10 µM

(Q) Entry "CC(C)Oc1cccnc1-c1ccc(CN2C(=O)CCn3nc(-c4c(Cl)cnn4C(C)C)cc32)cc1Cl" please
(A) ≥ 10 µM

(Q) Also "CCn1cc(C(F)(F)F)nc1-c1ccc(CN2CC(C)(C)Cn3nc(-c4c(OC)ncnc4C4CC4)cc32)cc1F" , if possible.
(A) ≥ 10 µM

(Q) What do we get for "CCn1cc(C(F)(F)F)nc1-c1ccc(Cn2c(=O)ccn3nc(-c4c(OC(F)F)ncnc4C4CC4)nc23)cc1" ?
(A) < 10 µM

(Q) Also "Cc1cnn(C(C)C)c1-c1cc2n(n1)CCC(=O)N2Cc1ccc(-n2nc(C(F)(F)F)cc2C)cc1" , if possible.
(A) < 10 µM

(Q) How about CC(C)n1ncc(Cl)c1-c1cc2n(n1)CC(O)C(=O)N2Cc1ccc(-c2nc(C(F)(F)F)cn2C)cc1 (stereo not shown) ?
(A) < 10 µM

(Q) Query "CCn1cc(C(F)(F)F)nc1-c1ccc(CN2C(=O)CCn3nc(-c4c(Cl)cnn4[C@@H](C)COC)cc32)cc1F" next
(A) < 10 µM

(Q) Try the compound "COc1cccnc1-c1ccc(CN2C(=O)CCn3nc(-c4c(Cl)cnn4C(C)C)cc32)cc1Cl"
(A) ≥ 10 µM
